Target: OAT3 (Homo sapiens)
Sequence (Q8TCC7 1-542): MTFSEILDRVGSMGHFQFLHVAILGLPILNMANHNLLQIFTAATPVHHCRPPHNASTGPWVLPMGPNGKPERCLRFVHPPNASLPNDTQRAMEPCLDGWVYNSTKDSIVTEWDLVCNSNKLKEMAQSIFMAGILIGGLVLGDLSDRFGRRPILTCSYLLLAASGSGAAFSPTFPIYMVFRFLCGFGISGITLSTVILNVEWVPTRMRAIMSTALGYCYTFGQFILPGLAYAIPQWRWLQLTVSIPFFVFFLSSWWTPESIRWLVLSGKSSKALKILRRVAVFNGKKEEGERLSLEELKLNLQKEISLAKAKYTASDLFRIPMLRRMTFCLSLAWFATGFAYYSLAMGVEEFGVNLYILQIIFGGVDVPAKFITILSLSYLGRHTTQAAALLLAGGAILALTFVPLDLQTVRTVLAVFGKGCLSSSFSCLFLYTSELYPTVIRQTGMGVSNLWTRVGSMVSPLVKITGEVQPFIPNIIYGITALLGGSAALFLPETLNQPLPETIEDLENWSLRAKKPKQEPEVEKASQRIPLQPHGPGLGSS
Test: Drug transporter inhibition, OAT3
Settings: OAT3, HEK293
Square brackets hold non-standard residues; d marks the D form. Peptide text beside a SMILES is read from it. NMeThr(4R-Me,4-(CH2)6NHAc) = CN[C@H](C(=O)O)[C@H](O)[C@H](C)CCCCCCNC(C)=O; NMeL = CN[C@@H](CC(C)C)C(=O)O; NMeV = CN[C@H](C(=O)O)C(C)C; dNMeA = CN[C@H](C)C(=O)O; Abu = CC[C@H](N)C(=O)O
measuredEndpoint: pIC50
Answers are plain numbers, as −log10 of the molar value.

# input // fetch pIC50 given entry CC[C@@H]1NC(=O)[C@H]([C@H](O)[C@H](C)CCCCCCNC(C)=O)N(C)C(=O)[C@H](C(C)C)N(C)C(=O)[C@H](CC(C)C)N(C)C(=O)[C@H](CC(C)C)N(C)C(=O)[C@@H](C)NC(=O)[C@H](C)NC(=O)[C@H](CC(C)C)N(C)C(=O)[C@H](C(C)C)NC(=O)[C@H](CC(C)C)N(C)C(=O)[C@@H](C)N(C)C1=O [CRV431] (cyclo(A[dA][NMeL][NMeL][NMeV][NMeThr(4R-Me,4-(CH2)6NHAc)][Abu][dNMeA][NMeL]V[NMeL]))
# output 6.33

###

Target: UniProtKB P08183
Sequence (P08183 whole entry): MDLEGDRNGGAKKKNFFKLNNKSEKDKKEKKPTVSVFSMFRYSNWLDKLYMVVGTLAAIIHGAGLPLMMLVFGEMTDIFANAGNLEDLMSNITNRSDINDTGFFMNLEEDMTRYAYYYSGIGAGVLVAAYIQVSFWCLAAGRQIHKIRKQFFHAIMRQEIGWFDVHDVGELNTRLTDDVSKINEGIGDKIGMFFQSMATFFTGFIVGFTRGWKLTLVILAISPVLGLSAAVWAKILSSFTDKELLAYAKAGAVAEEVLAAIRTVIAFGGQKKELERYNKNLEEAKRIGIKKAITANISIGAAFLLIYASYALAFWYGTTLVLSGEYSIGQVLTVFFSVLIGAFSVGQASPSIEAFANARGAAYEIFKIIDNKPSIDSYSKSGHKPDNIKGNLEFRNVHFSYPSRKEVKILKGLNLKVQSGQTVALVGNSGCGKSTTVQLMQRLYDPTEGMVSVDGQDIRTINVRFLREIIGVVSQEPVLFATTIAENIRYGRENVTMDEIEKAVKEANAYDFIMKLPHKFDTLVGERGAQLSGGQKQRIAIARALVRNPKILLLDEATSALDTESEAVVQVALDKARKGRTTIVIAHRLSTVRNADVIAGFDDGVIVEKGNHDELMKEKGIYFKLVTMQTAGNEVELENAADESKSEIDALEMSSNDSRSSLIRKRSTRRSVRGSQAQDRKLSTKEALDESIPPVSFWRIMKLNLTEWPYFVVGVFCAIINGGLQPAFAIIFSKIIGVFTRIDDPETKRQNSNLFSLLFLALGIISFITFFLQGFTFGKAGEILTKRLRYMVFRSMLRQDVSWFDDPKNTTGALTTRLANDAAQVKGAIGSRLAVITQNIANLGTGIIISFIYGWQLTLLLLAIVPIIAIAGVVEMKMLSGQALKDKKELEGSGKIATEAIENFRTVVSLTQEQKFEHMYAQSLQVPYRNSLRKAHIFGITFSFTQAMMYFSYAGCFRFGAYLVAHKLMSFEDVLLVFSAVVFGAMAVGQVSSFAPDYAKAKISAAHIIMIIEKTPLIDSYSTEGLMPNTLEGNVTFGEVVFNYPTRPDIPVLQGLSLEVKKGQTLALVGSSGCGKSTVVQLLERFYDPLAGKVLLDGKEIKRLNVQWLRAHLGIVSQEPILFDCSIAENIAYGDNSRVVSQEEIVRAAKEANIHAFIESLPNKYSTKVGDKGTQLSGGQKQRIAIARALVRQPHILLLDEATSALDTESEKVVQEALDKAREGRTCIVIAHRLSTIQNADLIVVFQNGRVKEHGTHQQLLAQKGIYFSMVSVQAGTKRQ
Square brackets hold non-standard residues; d marks the D form. Peptide text beside a SMILES is read from it. NMeThr(4R-Me,4-(CH2)6NHAc) = CN[C@H](C(=O)O)[C@H](O)[C@H](C)CCCCCCNC(C)=O; NMeL = CN[C@@H](CC(C)C)C(=O)O; NMeV = CN[C@H](C(=O)O)C(C)C; dNMeA = CN[C@H](C)C(=O)O; Abu = CC[C@H](N)C(=O)O
measuredEndpoint: IC50

# input // fetch IC50 given entry CC[C@@H]1NC(=O)[C@H]([C@H](O)[C@H](C)CCCCCCNC(C)=O)N(C)C(=O)[C@H](C(C)C)N(C)C(=O)[C@H](CC(C)C)N(C)C(=O)[C@H](CC(C)C)N(C)C(=O)[C@@H](C)NC(=O)[C@H](C)NC(=O)[C@H](CC(C)C)N(C)C(=O)[C@H](C(C)C)NC(=O)[C@H](CC(C)C)N(C)C(=O)[C@@H](C)N(C)C1=O [CRV431] (cyclo(A[dA][NMeL][NMeL][NMeV][NMeThr(4R-Me,4-(CH2)6NHAc)][Abu][dNMeA][NMeL]V[NMeL]))
# output > 50 µM

###

Biological target: BCRP (Homo sapiens)
Sequence (Q9UNQ0 whole entry): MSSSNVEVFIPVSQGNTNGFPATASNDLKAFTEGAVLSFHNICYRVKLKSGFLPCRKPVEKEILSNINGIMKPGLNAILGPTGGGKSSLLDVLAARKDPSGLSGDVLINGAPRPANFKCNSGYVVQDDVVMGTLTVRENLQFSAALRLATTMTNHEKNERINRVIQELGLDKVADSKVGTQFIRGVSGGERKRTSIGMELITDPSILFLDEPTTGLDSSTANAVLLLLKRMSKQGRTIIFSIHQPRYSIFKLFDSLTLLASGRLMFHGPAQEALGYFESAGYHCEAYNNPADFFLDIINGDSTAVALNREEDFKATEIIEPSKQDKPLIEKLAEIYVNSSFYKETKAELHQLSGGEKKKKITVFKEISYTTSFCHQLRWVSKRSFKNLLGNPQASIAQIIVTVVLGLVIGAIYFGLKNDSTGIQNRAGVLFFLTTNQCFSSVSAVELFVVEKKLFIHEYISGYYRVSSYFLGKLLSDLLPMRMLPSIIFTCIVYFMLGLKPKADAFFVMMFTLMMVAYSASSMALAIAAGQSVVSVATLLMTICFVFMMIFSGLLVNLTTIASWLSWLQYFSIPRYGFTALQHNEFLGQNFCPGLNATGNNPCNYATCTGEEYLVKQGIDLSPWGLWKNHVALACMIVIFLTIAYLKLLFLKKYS
Square brackets hold non-standard residues; d marks the D form. Peptide text beside a SMILES is read from it. NMeThr(4R-Me,4-(CH2)6NHAc) = CN[C@H](C(=O)O)[C@H](O)[C@H](C)CCCCCCNC(C)=O; NMeL = CN[C@@H](CC(C)C)C(=O)O; NMeV = CN[C@H](C(=O)O)C(C)C; dNMeA = CN[C@H](C)C(=O)O; Abu = CC[C@H](N)C(=O)O
measuredEndpoint: pIC50
Numbers only, as −log10 of the molar value.

# input Jot down pIC50 (BCRP (Homo sapiens)) of CC[C@@H]1NC(=O)[C@H]([C@H](O)[C@H](C)CCCCCCNC(C)=O)N(C)C(=O)[C@H](C(C)C)N(C)C(=O)[C@H](CC(C)C)N(C)C(=O)[C@H](CC(C)C)N(C)C(=O)[C@@H](C)NC(=O)[C@H](C)NC(=O)[C@H](CC(C)C)N(C)C(=O)[C@H](C(C)C)NC(=O)[C@H](CC(C)C)N(C)C(=O)[C@@H](C)N(C)C1=O [CRV431] (cyclo(A[dA][NMeL][NMeL][NMeV][NMeThr(4R-Me,4-(CH2)6NHAc)][Abu][dNMeA][NMeL]V[NMeL])) .
# output 4.64

###

Molecular target: recombinant Cyp B (PPIB) (Homo sapiens)
Construct: purchased Cedarlane Laboratories CLENZ313
Sequence (P23284 34-216): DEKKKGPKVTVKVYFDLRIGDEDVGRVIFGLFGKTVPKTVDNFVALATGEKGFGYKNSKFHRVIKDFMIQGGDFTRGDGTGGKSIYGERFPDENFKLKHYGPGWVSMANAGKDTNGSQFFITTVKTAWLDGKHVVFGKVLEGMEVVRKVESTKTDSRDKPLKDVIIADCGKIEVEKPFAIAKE
Experiment: Cyclophilin isomerase assay, Cyp B
Type: biochemical
Conditions: PPIB (Cyp B); one peptide substrate concentration
Square brackets hold non-standard residues; d marks the D form. Peptide text beside a SMILES is read from it. NMeThr(4R-Me,4-(CH2)6NHAc) = CN[C@H](C(=O)O)[C@H](O)[C@H](C)CCCCCCNC(C)=O; NMeL = CN[C@@H](CC(C)C)C(=O)O; NMeV = CN[C@H](C(=O)O)C(C)C; dNMeA = CN[C@H](C)C(=O)O; Abu = CC[C@H](N)C(=O)O
measuredEndpoint: IC50 (nM)
Give bare numbers, in nM.

# input // fetch IC50 given entry CC[C@@H]1NC(=O)[C@H]([C@H](O)[C@H](C)CCCCCCNC(C)=O)N(C)C(=O)[C@H](C(C)C)N(C)C(=O)[C@H](CC(C)C)N(C)C(=O)[C@H](CC(C)C)N(C)C(=O)[C@@H](C)NC(=O)[C@H](C)NC(=O)[C@H](CC(C)C)N(C)C(=O)[C@H](C(C)C)NC(=O)[C@H](CC(C)C)N(C)C(=O)[C@@H](C)N(C)C1=O [CRV431] (cyclo(A[dA][NMeL][NMeL][NMeV][NMeThr(4R-Me,4-(CH2)6NHAc)][Abu][dNMeA][NMeL]V[NMeL]))
# output 3.1

###

Target: recombinant Cyp A (PPIA) (Homo sapiens)
Construct: purchased R&D Systems 3589-CAB
Sequence (P62937 whole entry): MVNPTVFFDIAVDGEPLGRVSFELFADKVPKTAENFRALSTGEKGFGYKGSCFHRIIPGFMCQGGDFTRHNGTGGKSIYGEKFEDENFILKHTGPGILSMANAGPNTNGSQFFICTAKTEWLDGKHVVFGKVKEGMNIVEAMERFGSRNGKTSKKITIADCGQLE
Experiment: Cyclophilin isomerase assay, Cyp A
Format: biochemical
Conditions: PPIA (Cyp A); one peptide substrate concentration
Square brackets hold non-standard residues; d marks the D form. Peptide text beside a SMILES is read from it. NMeThr(4R-Me,4-(CH2)6NHAc) = CN[C@H](C(=O)O)[C@H](O)[C@H](C)CCCCCCNC(C)=O; NMeL = CN[C@@H](CC(C)C)C(=O)O; NMeV = CN[C@H](C(=O)O)C(C)C; dNMeA = CN[C@H](C)C(=O)O; Abu = CC[C@H](N)C(=O)O
measuredEndpoint: IC50 (nM)
Numbers only, in nM.

# input // fetch IC50 given entry CC[C@@H]1NC(=O)[C@H]([C@H](O)[C@H](C)CCCCCCNC(C)=O)N(C)C(=O)[C@H](C(C)C)N(C)C(=O)[C@H](CC(C)C)N(C)C(=O)[C@H](CC(C)C)N(C)C(=O)[C@@H](C)NC(=O)[C@H](C)NC(=O)[C@H](CC(C)C)N(C)C(=O)[C@H](C(C)C)NC(=O)[C@H](CC(C)C)N(C)C(=O)[C@@H](C)N(C)C1=O [CRV431] (cyclo(A[dA][NMeL][NMeL][NMeV][NMeThr(4R-Me,4-(CH2)6NHAc)][Abu][dNMeA][NMeL]V[NMeL]))
# output 2.5

Recorded values, source paper PMC6815936.
